inhibition at 10 µM for assorted compounds
biological target: BACE1 (Homo sapiens, UniProt P56817); construct: purchased PanVera Co. (Invitrogen, USA); assay: In vitro BACE1 FRET enzyme assay; type: biochemical; conditions: BACE1 FRET assay, 10 μM compound; read-out: Inhibition Rate at 10 μM (%)
Sequence (P56817 46-501): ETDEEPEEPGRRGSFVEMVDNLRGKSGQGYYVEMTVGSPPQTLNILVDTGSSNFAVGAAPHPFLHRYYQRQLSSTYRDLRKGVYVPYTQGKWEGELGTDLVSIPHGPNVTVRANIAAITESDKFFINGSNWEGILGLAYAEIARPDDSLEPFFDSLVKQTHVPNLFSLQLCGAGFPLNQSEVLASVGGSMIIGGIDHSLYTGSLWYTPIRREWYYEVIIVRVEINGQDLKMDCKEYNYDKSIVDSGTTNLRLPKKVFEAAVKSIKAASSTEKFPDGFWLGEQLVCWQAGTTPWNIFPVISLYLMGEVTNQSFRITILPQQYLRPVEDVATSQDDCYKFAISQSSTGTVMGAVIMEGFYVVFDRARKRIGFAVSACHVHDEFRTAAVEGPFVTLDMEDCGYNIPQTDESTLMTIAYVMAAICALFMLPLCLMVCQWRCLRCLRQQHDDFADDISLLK
Value expressed in %; do not type the unit.

>>> test_value("O=C(/C=C/c1ccc(O)cc1)OCCOc1cc(O)c2c(=O)cc(-c3ccccc3)oc2c1")
20.5

Which inhibition at 10 µM is listed for O=C(/C=C/c1ccc([N+](=O)[O-])cc1)OCCOc1cc(O)c2c(=O)cc(-c3ccc(O)c(O)c3)oc2c1 ?
73.9

Which inhibition at 10 µM is listed for O=C(/C=C/c1ccc(O)cc1)OCCCCOc1cc(O)c2c(=O)cc(-c3ccc(O)c(O)c3)oc2c1 ?
68.1

Which inhibition at 10 µM is listed for O=C(/C=C/c1ccc(O)cc1)Oc1ccc(-c2cc(=O)c3c(O)cc(O)cc3o2)cc1 ?
29.4

Which inhibition at 10 µM is listed for O=C(/C=C/c1ccc(O)cc1)OCCCCCOc1cc(O)c2c(=O)cc(-c3ccc(O)c(O)c3)oc2c1 ?
62.6

Which inhibition at 10 µM is listed for O=C(C=Cc1ccccc1)OCCOc1cc(O)c2c(=O)cc(-c3ccc(O)c(O)c3)oc2c1 ?
57.5

###

# UniProtKB Q9Y5Z0: IC50 values follow
# Sequence (Q9Y5Z0 63-518, species assumed): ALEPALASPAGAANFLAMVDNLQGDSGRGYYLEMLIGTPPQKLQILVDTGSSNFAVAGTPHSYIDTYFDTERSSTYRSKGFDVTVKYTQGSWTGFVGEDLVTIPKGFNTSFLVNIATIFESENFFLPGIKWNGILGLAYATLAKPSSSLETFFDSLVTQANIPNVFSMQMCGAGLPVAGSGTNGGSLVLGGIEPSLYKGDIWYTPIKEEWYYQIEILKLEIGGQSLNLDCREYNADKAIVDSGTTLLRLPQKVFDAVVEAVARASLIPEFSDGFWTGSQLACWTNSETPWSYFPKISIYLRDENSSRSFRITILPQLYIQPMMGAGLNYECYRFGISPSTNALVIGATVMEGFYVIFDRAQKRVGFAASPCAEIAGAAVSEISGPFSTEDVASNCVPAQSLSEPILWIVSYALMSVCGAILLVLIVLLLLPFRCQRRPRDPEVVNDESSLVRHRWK

>>> test_value("O=C(/C=C/c1cccnc1)OCCOc1cc(O)c2c(=O)cc(-c3ccc(O)c(O)c3)oc2c1 [Compound 7k]")
"> 100 µM"

Which IC50 is listed for O=C(/C=C/c1cccc(O)c1)OCCOc1cc(O)c2c(=O)cc(-c3ccc(O)c(O)c3)oc2c1 [Compound 7c] ?
> 100 µM

###

molecular target: BACE1 (Homo sapiens, UniProt P56817)
RECORDED ENDPOINT: pKi
Reminder that pKi is minus the log10 of a molar concentration.

Which pKi is listed for O=C(/C=C/c1cccc(O)c1)OCCOc1cc(O)c2c(=O)cc(-c3ccc(O)c(O)c3)oc2c1 ?
5.92

###

inhibition at 10 µM for assorted compounds
Biological target: BACE1 (Homo sapiens)
Construct: purchased PanVera Co. (Invitrogen, USA)
Experiment: In vitro BACE1 FRET enzyme assay
Assay type: biochemical
Details: BACE1 FRET assay, 10 μM compound; read-out: Inhibition Rate at 10 μM (%)
Procedure: The BACE1 FRET assay kit was purchased from the PanVera Co. (Invitrogen, USA). The assay was carried out according to the supplied manual with modifications. […] The fluorescence intensity was measured with a TECAN infinite 200 microplate reader for 60 min at 25 °C in the dark. […] IC50 values were calculated from the nonlinear curve fitting of percentage inhibition against inhibitor concentration using Prism 3.0 software (GraphPad Software, San Diego, CA, USA).
Value expressed in %; do not type the unit.

Examples with answers:
>>> test_value("O=C(/C=C/c1ccc(O)cc1)OCCCOc1cc(O)c2c(=O)cc(-c3ccc(O)c(O)c3)oc2c1")
81.4
>>> test_value("O=C(/C=C/c1ccc(F)cc1)OCCOc1cc(O)c2c(=O)cc(-c3ccc(O)c(O)c3)oc2c1")
28.5
>>> test_value("CC(=O)Oc1ccc(/C=C/C(=O)Oc2ccc(-c3cc(=O)c4c(O)cc(O)cc4o3)cc2)cc1")
1.9
>>> test_value("O=C(/C=C/c1ccc(O)cc1)OCCCCCCOc1cc(O)c2c(=O)cc(-c3ccc(O)c(O)c3)oc2c1")
42.4
>>> test_value("CC(=O)Oc1ccc(/C=C/C(=O)Oc2cccc(-c3cc(=O)c4c(O)cc(O)cc4o3)c2)cc1")
23.9

Which inhibition at 10 µM is listed for O=C(/C=C/c1ccc(O)cc1)OCCOCCOc1ccc(-c2cc(=O)c3c(O)cc(O)cc3o2)cc1 ?
37

Which inhibition at 10 µM is listed for O=C(/C=C/C1CCCCC1)OCCOc1cc(O)c2c(=O)cc(-c3ccc(O)c(O)c3)oc2c1 ?
22.2
